Assay: Half life in rat
Type: ADME, organism-based
Conditions: in vivo
observable: half-life (h)
Give the value in h but do not write h after it.

What the record says about CC[C@H](NC(=O)c1c([S@+](C)[O-])c(-c2ccccc2)nc2ccccc12)c1ccccc1 : half-life is 3

---

Assay: Oral bioavailability in rat
Type: ADME, organism-based
Conditions: in vivo
observable: bioavailability (%)
Expressed in %, but write only the number.

Documented bioavailability of CC[C@H](NC(=O)c1c([S@+](C)[O-])c(-c2ccccc2)nc2ccccc12)c1ccccc1 : 60

---

Please provide measured solubility thermodynamic for the entries that follow.
Assay: Equilibrium solubility of the compound
Type: physicochemical
Give the value in µM but do not write µM after it.

solubility thermodynamic in this record for CC[C@H](NC(=O)c1c(CSC)c(-c2ccccc2)nc2ccccc12)c1ccccc1 (mixture of isomers) : 2

Sure, the documented solubility thermodynamic for CC[C@H](NC(=O)c1c([S+]([O-])C(C)C)c(-c2ccccc2)nc2ccccc12)c1ccccc1 (mixture of isomers) is 83

Memo: CC[C@H](NC(=O)c1c([S+](C)[O-])c(-c2ccccn2)nc2ccccc12)c1ccccc1 (mixture of isomers) , reported solubility thermodynamic: 360

Entry C[S+]([O-])c1c(-c2ccccc2)nc2ccccc2c1C(=O)N[C@H](c1ccccc1)C1CC1 (mixture of isomers) ; solubility thermodynamic = 180

So, CC[C@H](NC(=O)c1c([S+](C)[O-])c(-c2ccccc2)nc2c(F)cccc12)c1ccccc1 (mixture of isomers) ? Its solubility thermodynamic was 160

solubility thermodynamic in this record for CC[C@H](NC(=O)c1c(CC[S+](C)[O-])c(-c2ccccc2)nc2ccccc12)c1ccccc1 (mixture of isomers) : 360

The recorded solubility thermodynamic for CC[C@H](NC(=O)c1c([S+](C)[O-])c(-c2cc[nH]n2)nc2ccccc12)c1ccccc1 (mixture of isomers) is 420

Given item C[S+]([O-])c1c(-c2ccccc2)nc2ccccc2c1C(=O)NC1(c2ccccc2)CCC1 (racemic) , the value recorded as its solubility thermodynamic is 4.5

Short answer for CC[C@H](NC(=O)c1c([S+](C)[O-])c(-c2ccccc2)nc2c(C)cccc12)c1ccccc1 (mixture of isomers) : solubility thermodynamic was 16

// solubility thermodynamic value for CC[C@H](NC(=O)c1c([S+](C)[O-])c(-c2cscn2)nc2ccccc12)c1ccccc1 (mixture of isomers) : 41

For this compound ( CC[C@H](NC(=O)c1c([S+](C)[O-])c(-c2ccccc2F)nc2ccccc12)c1ccccc1 (mixture of isomers) ), measured solubility thermodynamic is 53

Quick note, solubility thermodynamic for CC[C@H](NC(=O)c1c([S+](C)[O-])c(-c2ccccc2)nc2cc(CN(C)C)ccc12)c1ccccc1 (mixture of isomers) landed at 460

Entry CC[C@H](NC(=O)c1c([S+](C)[O-])c(-c2cncs2)nc2ccccc12)c1ccccc1 (mixture of isomers) ; solubility thermodynamic = 390

For this compound ( CC[C@H](NC(=O)c1c([S+](C)[O-])c(-c2ccccc2)nc2cc(C)ccc12)c1ccccc1 (mixture of isomers) ), measured solubility thermodynamic is 160

// CC[C@H](NC(=O)c1c([S+]([O-])CC(=O)N(C)C)c(-c2ccccc2)nc2ccccc12)c1ccccc1 (mixture of isomers) : solubility thermodynamic value = 52

Looking up CC[C@H](NC(=O)c1c([S+](C)[O-])c(-c2ccccc2)nc2ccccc12)c1cccnc1 (mixture of isomers) , I see its solubility thermodynamic listed as 350

Briefly, solubility thermodynamic measured for CC[C@H](NC(=O)c1c([S+](C)[O-])c(-c2ccccc2)nc2ccccc12)c1ccccn1 (mixture of isomers; 35a) : 420

Data point: CC[C@H](NC(=O)c1c(C[S@+](C)[O-])c(-c2ccccc2)nc2ccccc12)c1ccccc1 ; solubility thermodynamic = 53

Each recorded value in this set is attributed to ChEMBL document CHEMBL1681732.
